target.entity: PPARα (Homo sapiens, UniProt Q07869)
Sequence (Q07869 239-466 limits assumed, species assumed): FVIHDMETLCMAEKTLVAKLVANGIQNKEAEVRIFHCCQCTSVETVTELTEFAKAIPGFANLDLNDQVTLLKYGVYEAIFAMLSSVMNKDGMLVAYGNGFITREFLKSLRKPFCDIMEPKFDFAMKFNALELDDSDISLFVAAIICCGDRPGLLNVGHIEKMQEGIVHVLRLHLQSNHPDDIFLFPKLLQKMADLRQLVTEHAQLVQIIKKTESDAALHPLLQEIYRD
procedure.summary: Ga14 PPARα reporter functional assay in CV1 cells
run.conditions: 24 hours incubation, luciferase
readout: EC50

Recorded result, "CC#C[C@@H](CC(=O)O)c1ccc(OCc2cc(-c3c(C)cc(OC)cc3C)c3nc(C(C)C)nn3c2)cc1" , EC50: > 10 µM

====

target.entity: PPARδ (Homo sapiens, UniProt Q03181)
Sequence (Q03181 211-439 limits assumed, species assumed): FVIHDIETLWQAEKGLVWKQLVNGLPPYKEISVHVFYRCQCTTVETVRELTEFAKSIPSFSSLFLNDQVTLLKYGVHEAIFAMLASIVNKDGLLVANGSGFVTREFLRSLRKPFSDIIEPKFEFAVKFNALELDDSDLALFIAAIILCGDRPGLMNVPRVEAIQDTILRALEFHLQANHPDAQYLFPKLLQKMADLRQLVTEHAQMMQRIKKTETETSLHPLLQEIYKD
procedure.summary: Ga14 PPARδ reporter functional assay in CV1 cells
run.conditions: 24 hours incubation, luciferase
readout: pEC50
On this scale, pEC50 is minus log10 of a concentration expressed in M (mol/L).

Recorded result, "CC#C[C@@H](CC(=O)O)c1ccc(OCc2cc(-c3c(C)cc(OC)cc3C)c3nc(C(C)C)nn3c2)cc1" , pEC50: 5.40

The values you see were collected from patent US9809592B2.
